For each of the binders below, state its pKd.
Target: T1, human folate receptor alpha (hFRα), recombinant protein (human, UniProt P15328 25-233)
T1 construct: Bought recombinant proteins (His-tagged, or biotinylated via Avi-tag, e.g. AcroBiosystems FO1-H82E2, F01-H52H1); also called hFOLR1; huFOLR1
T1 sequence (P15328 25-233 limits assumed): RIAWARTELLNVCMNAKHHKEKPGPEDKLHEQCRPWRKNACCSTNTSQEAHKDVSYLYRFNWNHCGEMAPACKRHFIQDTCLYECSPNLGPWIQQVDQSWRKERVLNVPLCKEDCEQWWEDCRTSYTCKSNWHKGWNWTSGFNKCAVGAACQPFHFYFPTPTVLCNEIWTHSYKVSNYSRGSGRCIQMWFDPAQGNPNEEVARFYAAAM
Experiment: BLI, FRα on AR2G biosensors, 1:1 model
Answers are plain numbers, as −log10 of the molar value.

Consider the following illustrative entries.
Binder	pKd
VHH 2HFO19 (family 1) (VHH, also called Nb19) VHH: QVQLQESGGGLVQPGGSLRVSCAASGFPFSTVYMSWVRQAPGKGLEWVSGINNDGGVIDYADSVKGRFTISRDNAKNTLYLQLNSLKPEDTALYFCARGRSFVATLSSSLRGQGTQVTVSS	7.20
VHH 2HFO42 (family 3) (VHH, also called 2HF042; Nb42) VHH: QVQLQESGGGLVQAGGSLRLSCAASGSGFSGMIMGWYRQVPGKQRELVATVTSHGTTNYADSVKGRFTISRDNAKNTVLLQMNSLKPEDTAVYYCNAHFPGIYWGKGTQVTVSS	6.56

Could you now consider this next binder?
Look up pKd: VHH 3HFO26 (family 1) (VHH) VHH: QVQLQESGGGLVQPGGSLRITCVASGFPFSTYYMSWVRQAPGKGLEWVSGINSNGGVIDYADSVKGRFTISRDNAKNTLYLQLNSLKPEDTALYFCARGRAFVATMPSSLRGQGTQVTVSS
6.18
